The values you see were collected from PubChem BioAssay (NCI).

system: NCI-H460 lung; assay: NCI tumour cell line growth inhibition, 48 h
PROPERTY_MEASURED: TGI (µM)
Provide only the numeric value, understood in µM.

{"SMILES_CODE": "COc1cc2c(/C=C3/C(=O)N(C)c4ccc(O)cc43)c(Cl)[nH]c2cc1C", "PROPERTY_MEASURED": "TGI", "TEST_VALUE": 19.8}

Item under review: `N#CC(C#N)=C/C=C(\Sc1ccc(F)cc1Cl)c1ccc(Cl)cc1` . Reported TGI?
4.82

GET /values?readout=TGI&item= `CN(CCC(=O)/C(=C\c1ccccc1)c1ccc(Cl)cc1)Cc1ccccc1`
11.2

Value lookup for TGI; key = `CCCCNc1ccc(Nc2ccccc2)cc1`
43
